This collection of values is drawn from patent US20250241939A1.

- Test system: MIA (pancreatic cancer) cell genome
- assay_summary: ctDNA coculture with MIA cells, whole genome sequencing: genomic insertion sites, transposons at insertion points and SNVs (pancreatic cancer)
- Assay type: cell-based, human
- experimental_setup: TABLE 4; identified genomic insertion site, chromosome
- Description: The integration of ctDNAs into the host cell genome was evaluated. ctDNA was extracted from patient plasma, cultured for 24 hours with cells of a matching cancer cell type or non-matching cancer cell type, and whole genome sequencing was performed. The cell lines used were MM1s (multiple myeloma, MM) and MIA (pancreatic cancer, PC). The sequence data was used to reconstruct genomic contigs for each experimental condition by de novo assembly. […]
quantity_name: Location

1. 39 (nucleic acid, listed as Homo sapiens) GTATTTAGATTCCCAGACTTTGGAGCCAGATCGGCTGAGTTCAAACCCTGTCTGTGCAACTATCAGCTGTTCAGCTGTGTGACCTTGGGCAAGTTACTTAACCTCTCTGAACCCTGATTCCTCCTGCAAACGGTGGGAAAAATAATAGAACCAATCTCTCTGGGTTGCTGTAAGGATTAAATTAATTTACAGTGCATGTAACATGCTTACAGCAATGTCTGGCACACAGTAAGCACTAAGTATTTGTTGTTATTTGTCATC = Chr 2
